// data source = PubChem BioAssay AID686979

Assay: qHTS for Inhibitors of human tyrosyl-DNA phosphodiesterase 1 (TDP1): qHTS in cells in presence of CPT; note: nearly all actives have a fitted effect of over 55% in size
Settings: chicken DT40 Tdp1-/-;hTDP1 cells + 20 nM CPT, ATP luminescence, 48 h; series mostly up to 46.2 µM
Hit rate of the full screen: of about 420,000 compounds, about 50,000 (12%) were called active. Roughly 26% stayed inconclusive and do not appear here. Calls come from the whole dose curve; as a rule, active = well fitted inhibition curve with a large enough effect; inconclusive = small, poorly fitted or top-dose-only effect; inactive = flat fitted curve, though single readings scatter. The list comes from a sample in which actives are over-represented; it also holds close analogues and randomly drawn compounds.
Classes used: active, inactive

- compound: "Cc1nn(C(C)CC(=O)O)c(C)c1C (centres undefined)"
  label-value: "inactive"
- compound: "CCCCN1C(=O)/C(=C(/C#N)C(N)=O)c2ccccc21"
  label-value: "inactive"
- compound: "O=C(O)CCCN1C(=O)C2C3c4ccccc4C(c4ccccc43)[C@@H]2C1=O (some centres undefined)"
  label-value: "inactive"
- compound: "CC(Nc1nc(N2CCCC2)nc2ccccc12)c1ccccc1 (centres undefined)"
  label-value: "active"
- compound: "Cc1c(CN2CCC(C)CC2)c(=O)n(-c2ccccc2)n1C"
  label-value: "inactive"
- compound: "O=C(Nc1ccc(S(=O)(=O)N2CCCCC2)cc1)C1CC(=O)N(c2ccc(F)cc2)C1 (centres undefined)"
  label-value: "inactive"
- compound: "COC(=O)c1cc(=O)n(-c2c(Cl)cc(C(F)(F)F)cc2Cl)[nH]1"
  label-value: "inactive"
- compound: "Cc1oc2ccc(O)c(CN3CCOCC3)c2c1C(=O)Nc1cccc(Cl)c1C"
  label-value: "active"
- compound: "Cc1cc(C)nc(NS(=O)(=O)c2ccc(NC(=O)c3cc(=O)c4ccc(C)c(C)c4o3)cc2)n1"
  label-value: "inactive"
- compound: "CCOc1ccc(NC(=O)c2c(NC(=O)Cc3ccccc3)sc3c2CCCCC3)cc1"
  label-value: "active"
- compound: "O=C(COC(=O)c1cccs1)NCc1cccs1"
  label-value: "inactive"
- compound: "COc1ccc(CCNC(=O)c2ccccc2-c2ccccc2C(=O)O)cc1OC"
  label-value: "inactive"
- compound: "COc1ccc(CCNS(=O)(=O)c2cccc3cccnc23)cc1OC"
  label-value: "inactive"
- compound: "COc1ccc(NC(=O)CNC(=O)Cc2ccccc2)cc1OC"
  label-value: "inactive"
- compound: "CC1(C)NC(=O)N(CC(=O)Nc2ccc(-c3ccccc3)cc2)C1=O"
  label-value: "inactive"
- compound: "Cc1[nH]c2ccccc2c1/C=C(/C#N)C(=O)NC(C)C"
  label-value: "inactive"
- compound: "COc1ccc(CNC(=O)CCN2C(=O)c3ccccc3C2=O)cc1"
  label-value: "inactive"
- compound: "NC(=O)C1CCN(C(=O)COc2ccc3c4c(c(=O)oc3c2)CCC4)CC1"
  label-value: "inactive"
- compound: "O=C(C1CCC1)N1CCN(S(=O)(=O)c2ccc([N+](=O)[O-])cc2)CC1"
  label-value: "inactive"
- compound: "Cc1ccnc(NC(=O)C2CCN(S(=O)(=O)c3c(C)c(C)cc(C)c3C)CC2)c1"
  label-value: "inactive"
- compound: "O=C(NNC(=S)Nc1ccc(F)cc1)[C@H]1C[C@@H]1c1ccccc1"
  label-value: "inactive"
- compound: "CCn1cc(NC(=O)Nc2ccc(OC)c(OC)c2)c(C(N)=O)n1"
  label-value: "inactive"
- compound: "COc1ccc2c(c1)C(=C(C#N)C#N)C(=O)N2CCc1ccccc1"
  label-value: "active"
- compound: "O=C(CCC1N=C2c3ccccc3N=C(SCc3ccccc3F)N2C1=O)NCCc1ccccc1 (centres undefined)"
  label-value: "inactive"
- compound: "COc1ccccc1N1CC(C(=O)Nc2ccc(S(=O)(=O)N3CCOCC3)cc2)CC1=O (centres undefined)"
  label-value: "inactive"
- compound: "COc1ccc(CCNC(=O)C(=O)NCc2ccccc2C)cc1OC"
  label-value: "inactive"
- compound: "CC1CCCCN1CC(=O)NCc1ccc2c(c1)OCO2 (centres undefined)"
  label-value: "inactive"
- compound: "N=c1c2c(-c3ccccc3)c(-c3ccccc3)n(Cc3ccccc3)c2ncn1CCCO"
  label-value: "active"
- compound: "Cc1oc2ccc(O)c(CN3CCC(C)CC3)c2c1C(=O)Nc1ccccc1"
  label-value: "active"
- compound: "CCOC(=O)c1cccc(NC(=O)c2cc(CN3CCCC3)on2)c1"
  label-value: "inactive"
- compound: "Cc1cccc(CSc2ccc(-c3cccs3)nn2)c1"
  label-value: "inactive"
- compound: "Cc1cc(C)c(C(N)=O)c(Cl)n1"
  label-value: "inactive"
- compound: "COc1ccc(NC(=O)NC(C)c2c(-n3cccc3)sc(C)c2C)cc1OC (centres undefined)"
  label-value: "active"
- compound: "O=c1oc2ccccc2c(CNc2ccccc2)c1[N+](=O)[O-]"
  label-value: "inactive"
- compound: "N#Cc1ccc[n+](CC(=O)c2ccc(O)c(O)c2)c1"
  label-value: "inactive"
- compound: "O=C1CC2(CCN(C(=O)COc3ccc(F)cc3)CC2)Oc2ccccc21"
  label-value: "inactive"
- compound: "Cc1oc2ccc(O)c(CN3CCCCC3)c2c1C(=O)Nc1cccc(C(F)(F)F)c1"
  label-value: "active"
- compound: "COC(C[C@@H]1O[C@@H]1C(=O)[C@@H](C)OCc1ccccc1)OC"
  label-value: "inactive"
- compound: "COc1ccc(Cl)cc1NC(=O)C1CC(=O)N(c2ccc(F)cc2)C1 (centres undefined)"
  label-value: "inactive"
- compound: "CCC1CCCCN1S(=O)(=O)Cc1ccccc1Cl (centres undefined)"
  label-value: "inactive"
- compound: "COc1cccc(OC)c1CN(C)C(=O)c1cnccc1C(F)(F)F"
  label-value: "inactive"
- compound: "CC(NC(=O)c1ccccc1)C(=O)Nc1ccccc1 (centres undefined)"
  label-value: "inactive"
- compound: "COC(=O)c1c(NC(=O)CN2CCN(S(=O)(=O)c3ccccc3[N+](=O)[O-])CC2)sc2c1CCC(C)C2 (centres undefined)"
  label-value: "inactive"
- compound: "O=C(Nc1ccc(CN2CCOCC2)cc1)c1cc(Cl)ccc1Cl"
  label-value: "inactive"

###

Assay: qHTS for Inhibitors of human tyrosyl-DNA phosphodiesterase 1 (TDP1): qHTS in cells in presence of CPT; note: nearly all actives have a fitted effect of over 55% in size; note: potency is the fitted concentration of half-maximal effect
Conditions: chicken DT40 Tdp1-/-;hTDP1 cells + 20 nM CPT, ATP luminescence, 48 h; series mostly up to 46.2 µM
Among all 420,000 compounds or so, about 50,000 (12%) were called active. About 26% were inconclusive and are not listed. Only a selection was taken, and actives are over-represented in it overall.

- molecule: "Cc1cccc(NC(=O)c2cccc(C(F)(F)F)c2)c1"
  Potency: "inactive"
- molecule: "O=C(Nc1ccc(-c2csc(Nc3cccc(C(F)(F)F)c3)n2)cc1)c1cccc(C(F)(F)F)c1"
  Potency: "9.2 µM (active)"
- molecule: "COc1ccc(CNC(=O)C[C@H]2C[C@H](C(=O)N3CCOCC3)[C@@]3(CCC4CCCC4)c4[nH]c5ccc(Cl)cc5c4CCN3C2=O)cc1OC"
  Potency: "16.4 µM (active)"
- molecule: "COc1ccc(NC(=O)N2CC3(CCN(C(=O)c4cccn4C)CC3)C2)cc1"
  Potency: "inactive"
- molecule: "O=C(C[C@H]1C[C@H](C(=O)N2CCOCC2)[C@@]2(CCC3CCCC3)c3[nH]c4ccc(Cl)cc4c3CCN2C1=O)NCc1ccco1"
  Potency: "20.6 µM (active)"
- molecule: "N#CCCN(C(=S)Nc1ccc(Cl)c(Cl)c1)C1CCCCC1"
  Potency: "inactive"
- molecule: "CC[C@]12c3[nH]c4ccc(Cl)cc4c3CCN1C(=O)[C@@H](CC(=O)NCCN1CCOCC1)C[C@@H]2C(=O)N1CCN(C(=O)C2CC2)CC1"
  Potency: "inactive"
- molecule: "Cn1c(CNC(=O)c2ccccc2F)nnc1SCc1ccc(F)cc1"
  Potency: "inactive"
- molecule: "COc1ccc2c(c1)CCCO[C@]21O[C@H](CCO)C[C@H](O)[C@H]1O"
  Potency: "inactive"
- molecule: "O=C(Nc1ccc(OC(F)(F)F)cc1)c1cc2c(=O)n3ccccc3nc2s1"
  Potency: "inactive"
- molecule: "CCCc1ccc(OCC(O)CN2CCN(CCO)CC2)cc1 (stereo not given)"
  Potency: "inactive"
- molecule: "CN1CCN(S(=O)(=O)c2ccc(NC(=S)NC(=O)C3CC3)cc2)CC1"
  Potency: "inactive"
- molecule: "Cc1ccc2cc(C)c(N3CCN(c4ccc(F)cc4)CC3)nc2c1"
  Potency: "inactive"
- molecule: "C[C@@H]1CC2=C(C(=O)OC(C)(C)O2)[C@@H](C2CC2)O1"
  Potency: "inactive"
- molecule: "Cc1nc2ccccn2c(=O)c1NC(=O)c1c(F)cccc1F"
  Potency: "inactive"
- molecule: "C[C@@H](NC(=O)[C@@H]1Cc2ccccc2CN1)C(=O)NC1CCCC1"
  Potency: "inactive"
- molecule: "COc1ccc2[nH]c3c(c2c1)CCN1C(=O)C(CC(=O)NCCCN(C)C)C[C@H](C(=O)N2CCOCC2)[C@@]31CCC1CCCC1 (stereo not given in full)"
  Potency: "inactive"
- molecule: "COCc1c(C(=O)N/N=C\\c2cccnc2)nnn1-c1nonc1N"
  Potency: "inactive"
- molecule: "CNC(=O)c1ccc(NC(=O)c2cccc(C(F)(F)F)c2)cc1"
  Potency: "inactive"
- molecule: "Cn1ccsc1=NC(=O)c1cc(S(=O)(=O)N2CCOCC2)ccc1Cl"
  Potency: "inactive"
